Numbers sourced from PubChem BioAssay AID1259407.

# Tested on: CCRIS mutagenicity, Ames/micronucleus/aberration tests
# experiment.description: CCRIS mutagenicity studies
# condition.details: Test System: Mouse lymphoma; Strain/Indicator: L5178Y (tk+/tk-); Metabolic Activation: None; Method: Suspension/plate
Active and inactive are the calls of the source. No rule for the calls is given here.
Labels: active, inactive

| compound | system.under.test | discrete.label |
| --- | --- | --- |
| NC(=O)c1nnn(Cc2cc(Cl)c(C(=O)c3ccc(Cl)cc3)c(Cl)c2)c1N | CCRIS mutagenicity, Ames/micronucleus/aberration tests | inactive |
| Cn1c(-c2ccccc2)c(N=Nc2scc[n+]2C)c2ccccc21 | CCRIS mutagenicity, Ames/micronucleus/aberration tests | active |
| N#CCCN | CCRIS mutagenicity, Ames/micronucleus/aberration tests | inactive |
| O=S(=O)(O)c1ccc(N=Nc2cc(S(=O)(=O)O)c3ccccc3c2O)c2ccccc12 | CCRIS mutagenicity, Ames/micronucleus/aberration tests | inactive |
| Cc1ccc(N(CCO)CCO)cc1 | CCRIS mutagenicity, Ames/micronucleus/aberration tests | inactive |
| Nc1ccn([C@@H]2CS[C@H](CO)O2)c(=O)n1 | CCRIS mutagenicity, Ames/micronucleus/aberration tests | inactive |
| COc1ccc2c(c1)-c1nn(CCCN(C)C)c3ccc([N+](=O)[O-])c(c13)N2 | CCRIS mutagenicity, Ames/micronucleus/aberration tests | active |
| CC(Oc1ccc(Oc2cnc3cc(Cl)ccc3n2)cc1)C(=O)O (stereo not drawn) | CCRIS mutagenicity, Ames/micronucleus/aberration tests | active |
